Target: GST-Dm-Relish (Drosophila melanogaster, UniProt Q94527 99-473)
Sequence: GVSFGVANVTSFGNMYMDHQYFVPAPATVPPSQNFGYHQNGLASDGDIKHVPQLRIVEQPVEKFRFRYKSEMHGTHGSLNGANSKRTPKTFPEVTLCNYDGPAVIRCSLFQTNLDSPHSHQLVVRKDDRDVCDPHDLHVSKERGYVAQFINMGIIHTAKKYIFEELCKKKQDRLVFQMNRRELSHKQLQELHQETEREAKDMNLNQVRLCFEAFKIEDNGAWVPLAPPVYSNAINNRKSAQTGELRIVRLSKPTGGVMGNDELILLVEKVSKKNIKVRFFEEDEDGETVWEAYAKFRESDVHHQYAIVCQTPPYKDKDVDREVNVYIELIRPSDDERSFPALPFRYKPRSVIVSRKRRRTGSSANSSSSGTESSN
Assay: protein-binding microarray (PBM); PBM: ~300 nM protein, 6 mM HEPES pH 7.8, 80 mM KCl, 0.5 mM EDTA, 0.5 mM EGTA, 6% glycerol, 35 ng/ul poly-dIdC, 1% milk, 1 h, room temperature; high values mean tight binding
Details: dsDNA, one strand shown
readout.kind: binding signal (z-score)

- sequence.code: "CCGATTAACATCATGGGTGGGAATGATGTTAATCGGGTCTTGATTCGCTTGACGCTGCTG"
  target.entity: "GST-Dm-Relish (Drosophila melanogaster, UniProt Q94527 99-473)"
  readout.kind: "binding signal"
  unit.string: "z-score"
  value.measured: 1.66
- sequence.code: "CCGATTAACATCAAATTTTCCGGTGATGTTAATCGGGTCTTGATTCGCTTGACGCTGCTG"
  target.entity: "GST-Dm-Relish (Drosophila melanogaster, UniProt Q94527 99-473)"
  readout.kind: "binding signal"
  unit.string: "z-score"
  value.measured: 1.54
- sequence.code: "CCGATTAACATCAGGGGCTGTACTGATGTTAATCGGGTCTTGATTCGCTTGACGCTGCTG"
  target.entity: "GST-Dm-Relish (Drosophila melanogaster, UniProt Q94527 99-473)"
  readout.kind: "binding signal"
  unit.string: "z-score"
  value.measured: 3.56
- sequence.code: "CCGATTAACATCAATTTTCCCAATGATGTTAATCGGGTCTTGATTCGCTTGACGCTGCTG"
  target.entity: "GST-Dm-Relish (Drosophila melanogaster, UniProt Q94527 99-473)"
  readout.kind: "binding signal"
  unit.string: "z-score"
  value.measured: 1.29
- sequence.code: "CCGATTAACATCACAATACCCCCTGATGTTAATCGGGTCTTGATTCGCTTGACGCTGCTG"
  target.entity: "GST-Dm-Relish (Drosophila melanogaster, UniProt Q94527 99-473)"
  readout.kind: "binding signal"
  unit.string: "z-score"
  value.measured: 4.2
- sequence.code: "CCGATTAACATCACAGAACCCCCTGATGTTAATCGGGTCTTGATTCGCTTGACGCTGCTG"
  target.entity: "GST-Dm-Relish (Drosophila melanogaster, UniProt Q94527 99-473)"
  readout.kind: "binding signal"
  unit.string: "z-score"
  value.measured: 7.46
- sequence.code: "CCGATTAACATCAGGATACCCCCTGATGTTAATCGGGTCTTGATTCGCTTGACGCTGCTG"
  target.entity: "GST-Dm-Relish (Drosophila melanogaster, UniProt Q94527 99-473)"
  readout.kind: "binding signal"
  unit.string: "z-score"
  value.measured: 5.79
- sequence.code: "CCGATTAACATCAAAAATCCCCTTGATGTTAATCGGGTCTTGATTCGCTTGACGCTGCTG"
  target.entity: "GST-Dm-Relish (Drosophila melanogaster, UniProt Q94527 99-473)"
  readout.kind: "binding signal"
  unit.string: "z-score"
  value.measured: 10.1
- sequence.code: "CCGATTAACATCAGGAGAATCCCTGATGTTAATCGGGTCTTGATTCGCTTGACGCTGCTG"
  target.entity: "GST-Dm-Relish (Drosophila melanogaster, UniProt Q94527 99-473)"
  readout.kind: "binding signal"
  unit.string: "z-score"
  value.measured: 4.39
- sequence.code: "CCGATTAACATCAAAGCACCCCCTGATGTTAATCGGGTCTTGATTCGCTTGACGCTGCTG"
  target.entity: "GST-Dm-Relish (Drosophila melanogaster, UniProt Q94527 99-473)"
  readout.kind: "binding signal"
  unit.string: "z-score"
  value.measured: 3.26
- sequence.code: "CCGATTAACATCAAGGAAACTCCTGATGTTAATCGGGTCTTGATTCGCTTGACGCTGCTG"
  target.entity: "GST-Dm-Relish (Drosophila melanogaster, UniProt Q94527 99-473)"
  readout.kind: "binding signal"
  unit.string: "z-score"
  value.measured: 1.12
- sequence.code: "CCGATTAACATCAAGGGACTTTCTGATGTTAATCGGGTCTTGATTCGCTTGACGCTGCTG"
  target.entity: "GST-Dm-Relish (Drosophila melanogaster, UniProt Q94527 99-473)"
  readout.kind: "binding signal"
  unit.string: "z-score"
  value.measured: 7.3
- sequence.code: "CCGATTAACATCAAATATCCCCTTGATGTTAATCGGGTCTTGATTCGCTTGACGCTGCTG"
  target.entity: "GST-Dm-Relish (Drosophila melanogaster, UniProt Q94527 99-473)"
  readout.kind: "binding signal"
  unit.string: "z-score"
  value.measured: 6.97
- sequence.code: "CCGATTAACATCAAGAATCCCCTTGATGTTAATCGGGTCTTGATTCGCTTGACGCTGCTG"
  target.entity: "GST-Dm-Relish (Drosophila melanogaster, UniProt Q94527 99-473)"
  readout.kind: "binding signal"
  unit.string: "z-score"
  value.measured: 8.39
- sequence.code: "CCGATTAACATCAATTGGGAAATTGATGTTAATCGGGTCTTGATTCGCTTGACGCTGCTG"
  target.entity: "GST-Dm-Relish (Drosophila melanogaster, UniProt Q94527 99-473)"
  readout.kind: "binding signal"
  unit.string: "z-score"
  value.measured: 1.48
- sequence.code: "CCGATTAACATCACCGGAAATCCTGATGTTAATCGGGTCTTGATTCGCTTGACGCTGCTG"
  target.entity: "GST-Dm-Relish (Drosophila melanogaster, UniProt Q94527 99-473)"
  readout.kind: "binding signal"
  unit.string: "z-score"
  value.measured: 2.06
- sequence.code: "CCGATTAACATCAGAAAATACCATGATGTTAATCGGGTCTTGATTCGCTTGACGCTGCTG"
  target.entity: "GST-Dm-Relish (Drosophila melanogaster, UniProt Q94527 99-473)"
  readout.kind: "binding signal"
  unit.string: "z-score"
  value.measured: 3.11
- sequence.code: "CCGATTAACATCAAAAAATCCCTTGATGTTAATCGGGTCTTGATTCGCTTGACGCTGCTG"
  target.entity: "GST-Dm-Relish (Drosophila melanogaster, UniProt Q94527 99-473)"
  readout.kind: "binding signal"
  unit.string: "z-score"
  value.measured: 8.1

###

Molecular target: GST-Hu-p50 (Homo sapiens, UniProt P19838 7-356)
Sequence (P19838 7-356): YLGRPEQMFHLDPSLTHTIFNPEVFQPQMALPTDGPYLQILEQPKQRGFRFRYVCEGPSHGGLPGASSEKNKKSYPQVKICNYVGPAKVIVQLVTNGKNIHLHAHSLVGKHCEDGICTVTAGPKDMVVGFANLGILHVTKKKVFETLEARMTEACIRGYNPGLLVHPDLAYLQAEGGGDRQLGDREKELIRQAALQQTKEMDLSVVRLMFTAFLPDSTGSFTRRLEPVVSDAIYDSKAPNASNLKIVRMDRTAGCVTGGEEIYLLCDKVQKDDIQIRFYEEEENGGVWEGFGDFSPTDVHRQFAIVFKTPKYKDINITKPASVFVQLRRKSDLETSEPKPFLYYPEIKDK
Experiment: protein-binding microarray (PBM); PBM: ~300 nM protein, 6 mM HEPES pH 7.8, 80 mM KCl, 0.5 mM EDTA, 0.5 mM EGTA, 6% glycerol, 35 ng/ul poly-dIdC, 1% milk, 1 h, room temperature; Ap Aiptasia and Nv Nematostella (sea anemones) / Co Capsaspora / Aq Amphimedon (sponge) / Dm Drosophila / Hu human; RHD is the Rel homology domain; high values mean tight binding
Details: dsDNA, one strand shown

- sequence.code: "CCGATTAACATCAGGGGTTTTACTGATGTTAATCGGGTCTTGATTCGCTTGACGCTGCTG"
  binding signal (z-score): 5.77
- sequence.code: "CCGATTAACATCAGGGGAGTCCATGATGTTAATCGGGTCTTGATTCGCTTGACGCTGCTG"
  binding signal (z-score): 3.32
- sequence.code: "CCGATTAACATCAGGGGGTATTATGATGTTAATCGGGTCTTGATTCGCTTGACGCTGCTG"
  binding signal (z-score): 5.39
- sequence.code: "CCGATTAACATCAAAGTCCCCCGTGATGTTAATCGGGTCTTGATTCGCTTGACGCTGCTG"
  binding signal (z-score): 5.37
- sequence.code: "CCGATTAACATCAGGGGAACCCCTGATGTTAATCGGGTCTTGATTCGCTTGACGCTGCTG"
  binding signal (z-score): 7.08
- sequence.code: "CCGATTAACATCAGGAAGGTCCCTGATGTTAATCGGGTCTTGATTCGCTTGACGCTGCTG"
  binding signal (z-score): 2.52
- sequence.code: "CCGATTAACATCAGGAATCCCCATGATGTTAATCGGGTCTTGATTCGCTTGACGCTGCTG"
  binding signal (z-score): 6.22
- sequence.code: "CCGATTAACATCAAGGGAACTCCTGATGTTAATCGGGTCTTGATTCGCTTGACGCTGCTG"
  binding signal (z-score): 2.28
- sequence.code: "CCGATTAACATCAGTTTTCCCCATGATGTTAATCGGGTCTTGATTCGCTTGACGCTGCTG"
  binding signal (z-score): 5.76
- sequence.code: "CCGATTAACATCACGTACTTCCCTGATGTTAATCGGGTCTTGATTCGCTTGACGCTGCTG"
  binding signal (z-score): 1.38
- sequence.code: "CCGATTAACATCACGGGATTCCCTGATGTTAATCGGGTCTTGATTCGCTTGACGCTGCTG"
  binding signal (z-score): 4.17
- sequence.code: "CCGATTAACATCAACAAATCCCCTGATGTTAATCGGGTCTTGATTCGCTTGACGCTGCTG"
  binding signal (z-score): 7.22
- sequence.code: "CCGATTAACATCATTTGGGAAAATGATGTTAATCGGGTCTTGATTCGCTTGACGCTGCTG"
  binding signal (z-score): 2.23
- sequence.code: "CCGATTAACATCAGGGAATCCCCTGATGTTAATCGGGTCTTGATTCGCTTGACGCTGCTG"
  binding signal (z-score): 8.34
- sequence.code: "CCGATTAACATCACCGTCCCCCCTGATGTTAATCGGGTCTTGATTCGCTTGACGCTGCTG"
  binding signal (z-score): 4.08
- sequence.code: "CCGATTAACATCAAAAACCACCCTGATGTTAATCGGGTCTTGATTCGCTTGACGCTGCTG"
  binding signal (z-score): 5.64
- sequence.code: "CCGATTAACATCAAAAAATCCCCTGATGTTAATCGGGTCTTGATTCGCTTGACGCTGCTG"
  binding signal (z-score): 8.06
- sequence.code: "CCGATTAACATCAAAAGGGAATTTGATGTTAATCGGGTCTTGATTCGCTTGACGCTGCTG"
  binding signal (z-score): 5.13

Source of measurements: paper PMC5700166
